Cited source: the PETadex activity labels (doi:10.1021/acscatal.2c02275)

Record form. Attribute: Proxy for plastic degradation. Fill in for each entry.
Substrate: pcPET (post-consumer)
test.details: Proxy for plastic degradation [Released monomer concentration (HPLC/LC-MS) (MHET+TPA+BHET)]
cond: pH 8; part of the chain shown
Give bare numbers, in mM.

Consider the following illustrative entries.
# protein, Proxy for plastic degradation, mM
records = [
    ("unnamed (protein) MANPYERGPDPTESSIEAVRGPFAVAQTTVSRLQADGFGGGTIYYPTDTSQGTFGAVAISPGFTAGQESIAWLGPRIASQGFVVITIDTITRLDQPDSRGRQLQAALDHLRTNSVVRNRIDPNRMAVMGHSMGGGGALSAAANNTSLEAAIPLQGWHTRKNWSSVRTPTLVVGAQLDTIAPVSSHSEAFYNSLPSDLDKAYMELCGASHLVSNTPDTTTAKYSIAWLKRFVDDDLRYEQFLCPAPDDFAICEYRSTCPF", 62),
    ("unnamed (protein) MANPYERGPDPTESSIEAVRGPFAVAQTTVSRLQADGFGGGTIYYPTDTSQGTFGAVAISPGFTAGQESIAWLGPRIASQGFVVITIDTITRFDYPDSRGRQLQAALDHLRTNSVVRNRIDPNRMAVMGHSMGGGGALSAAANNTSLEAAIPLQGWHTRKNWSSVRTPTLVVGAQLDTIAPVSSHSEAFYNSLPSDLDKAYMELRGASHLVSNTPDTTTAKYSIAWLKRFVDDDLRYEQFLCPAPDDFAISEYRSTCPF", 198),
    ("unnamed (protein) MANPYERGPDPTESSIEAVRGPFAVAQTTVSRLQADGFGGGTIYYPTDTSQGTFGAVAISPGFTAGQESIAWLGPRIASQGFVVITIDTITRLDQPDSRGRQLQAALDHLRTNSVVRNRIDPNRMAVMGHSMGGGGALSAAANNTSLEAAIPLQGWHTRKNWSSVRTPTLVVGAQLDTIAPVSSHSEAFYNSLPSDLDKAYMELRGASHLVSNTPDTTTAKYSIAWLKRFVDDDLRYEQFLCPAPDDFAISEYRSTCPF", 70),
]

Read the next record carefully.
Qu. Report Proxy for plastic degradation for unnamed (protein) MSNPYQRGPNPTRSALTADGPFSVATYTVSRLSVSGFGGGVIYYPTGTSLTFGGIAMSPGYTADASSLAWLGRRLASHGFVVLVINTNSRFDGPDSRASQLSAALNYLRTSSPSAVRARLDANRLAVAGHSMGGGGTLRIAEQNPSLKAAVPLTPWHTDKTFNTSVPVLIVGAEADTVAPVSQHAIPFYQNLPSTTPKVYVELCNASHIAPNSNNAAISVYTISWMKLWVDNDTRYRQFLCNVNDPALCDFRTNNRHCQL
Ans. 90
